Measured values drawn from PubChem BioAssay (NCI) for this set.

Tested on: NCI-H23 lung
PROTOCOL DESCRIPTION: NCI-60 one-dose screen, 48 h
TEST SETTINGS: 10 µM unless noted
About 83,000 compounds went through this panel and 20% of them were active in at least one assay; those are over-represented in the sample as a whole. Calls of active or inactive are those of the source. How the source made its calls: active means growth percent below 10; inactive means the rest.
# output must be one of active, inactive

Ask | Per the records of this test, what outcome belongs to COc1c2occc2c(OC)c2c(=O)c(-c3cc(-c4ccc(F)cc4)c(C#N)c(N)n3)c(C)oc12 ?
Reply | inactive

Ask | Same question, Nc1nc(Nc2cc(Cl)cc(Cl)c2)nn1S(=O)(=O)c1ccc2ccccc2c1 this time
Reply | inactive

Ask | Also need COc1ccc(NC(=O)c2c(Nc3ccc(OC)cc3OC)n[nH]c2N)c(OC)c1 , thanks.
Reply | inactive

Ask | Note, next up: COc1cccc(/C=C/C(=O)Nc2cc(OC)c3c(c2)OCO3)c1
Reply | inactive

Ask | Entry to check: O=C(/C=C/c1cc(-c2ccc3c(c2)OCO3)n[nH]1)c1ccc2c(c1)OCO2
Reply | inactive

Ask | Another compound: COc1ccc(C(=O)N2NC(=O)/C(=C/c3ccc(F)cc3)N=C2c2ccccc2)cc1
Reply | inactive

Ask | Input CCN(CC)CCCNc1nccc2ccc(Cl)cc12
Reply | inactive

Ask | Item: O=C([O][Sn]([O]C(=O)c1ccccn1)([c]1ccccc1)[c]1ccccc1)c1ccccn1
Reply | inactive

Ask | Now the compound O=[N+]([O-])c1ccc(-c2cn(-c3ccccc3)c(-c3ccccc3)n2)cc1
Reply | inactive

Ask | Another: O=C(Nc1ccncc1)C(=O)c1cn(S(=O)(=O)c2ccc(Oc3ccccc3)cc2)c2ccccc12
Reply | inactive

Ask | Ok, now C=C[C@@H]1C[C@@H]2Cc3c(C)cc(C)cc3N1O2
Reply | inactive

Ask | Try this compound next: COc1ccc(Nc2nn3c(C)cc(C)nc3c2C(=O)Nc2ccc(C)cc2)c(OC)c1
Reply | inactive

Ask | Try this compound next: COc1ccc(-c2cnnn2-c2nonc2-n2cccc2)cc1OC
Reply | inactive

Ask | Entry to check: Nc1cccc(Cl)c1N
Reply | inactive

Ask | Now the same for CC1(c2ccc(Cl)cc2)OC(=O)CC(=O)O1
Reply | inactive

Ask | Also Fc1ccc(Nc2nc(NCCNc3ccnc4cc(Cl)ccc34)nc(N3CCOCC3)n2)cc1 , if possible.
Reply | inactive

Ask | What do we get for CC(=O)Nc1scc[n+]1Cc1ccccc1 ?
Reply | inactive

Ask | What would you report for COc1ccc(C(=O)N2NC(=O)/C(=C/c3ccccc3F)N=C2c2ccccc2)cc1 ?
Reply | inactive

Ask | CC[N+](CC)=c1cc2oc3cc(N(C)C)ccc3nc-2cc1C , same question.
Reply | active

Ask | Let us now turn to CC(C)OC(=O)N1CCOCC1
Reply | inactive

Ask | Again, but for CC(NNC(C)c1ccccc1)c1ccccc1 (stereo not drawn)
Reply | inactive

Ask | Same thing, different compound: COc1cc(NCCCCCN)c2ncccc2c1
Reply | inactive

Ask | How about this compound: COc1ccc(Nc2nc(N)nc3c2CCN(Cc2ccc(OC)cc2OC)C3=O)cc1
Reply | inactive
